Biological target: human MGAT2 (Homo sapiens (Human))
Test: Test Example 1: Test of MGAT2 inhibitory action (human MGAT2 enzyme fraction from Sf9 cells, free CoA detected by CPM fluorescence)
Type: biochemical
Conditions: human MGAT2 enzyme fraction expressed in Sf9 insect cells, 0.5 μg/ml, 2-monooleoyl glycerol 0.78 μM, oleoyl-CoA 5.3 μM, room temperature 20 min, listed as 10-5, read-out: Activity Value [nM] (IC50, concentration at which 50% of produced free CoA was inhibited)
reported.metric: IC50

# return recorded IC50 for input CC(Cc1ccc(C(C)(C)C)cc1)N1CCc2cc(S(=O)(=O)Nc3ccc(CCCC4CCCC4)cc3F)ccc2C1 (single isomer, unassigned) [Working Example 10-5] 25 nM

====

Target: human MGAT2 (Homo sapiens (Human), UniProt Q3SYC2)
Sequence (Q3SYC2 whole entry): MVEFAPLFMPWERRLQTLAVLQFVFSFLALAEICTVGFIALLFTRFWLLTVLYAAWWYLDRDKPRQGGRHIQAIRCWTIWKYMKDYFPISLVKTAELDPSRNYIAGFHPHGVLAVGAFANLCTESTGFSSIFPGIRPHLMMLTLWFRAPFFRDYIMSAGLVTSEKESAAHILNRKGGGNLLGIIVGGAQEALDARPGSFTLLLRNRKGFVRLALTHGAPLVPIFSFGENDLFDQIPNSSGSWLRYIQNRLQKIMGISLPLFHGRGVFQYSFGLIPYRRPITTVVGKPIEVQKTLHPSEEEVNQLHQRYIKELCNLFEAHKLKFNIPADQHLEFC
Test: Test Example 1: Test of MGAT2 inhibitory action (human MGAT2 enzyme fraction from Sf9 cells, free CoA detected by CPM fluorescence)
Type: biochemical
Settings: human MGAT2 enzyme fraction expressed in Sf9 insect cells, 0.5 μg/ml, 2-monooleoyl glycerol 0.78 μM, oleoyl-CoA 5.3 μM, room temperature 20 min, listed as 10-14, read-out: Activity Value [nM] (IC50, concentration at which 50% of produced free CoA was inhibited)
reported.metric: IC50 (nM)
Lab book: enter the figure in nM, no units written.

# return recorded IC50 for input CC(Cc1ccc(C(C)(C)C)cc1)N1CCc2cc(S(=O)(=O)Nc3ccc(OCCCC4CCCCC4)cc3F)ccc2C1 (single isomer, unassigned) [Working Example 10-14] 106

====

Molecular target: human MGAT2 (Homo sapiens (Human))
Assay: Test Example 1: Test of MGAT2 inhibitory action (human MGAT2 enzyme fraction from Sf9 cells, free CoA detected by CPM fluorescence)
Assay type: biochemical
Details: human MGAT2 enzyme fraction expressed in Sf9 insect cells, 0.5 μg/ml, 2-monooleoyl glycerol 0.78 μM, oleoyl-CoA 5.3 μM, room temperature 20 min, listed as 10-6, read-out: Activity Value [nM] (IC50, concentration at which 50% of produced free CoA was inhibited)
reported.metric: IC50 (nM)
Lab book: enter the figure in nM, no units written.

# return recorded IC50 for input CC(Cc1ccc(C(C)(C)C)cc1)N1CCc2cc(S(=O)(=O)Nc3ccc(CCCC4CCCC4)cc3F)ccc2C1 (single isomer, unassigned) [Working Example 10-6] 44

====

Biological target: MGAT2 (microsomal fraction of human small intestine) (Homo sapiens (Human), UniProt Q3SYC2)
Sequence (Q3SYC2 whole entry): as above
Experiment: Test Example 2: Test of MGAT2 inhibitory action (microsomal fraction of human small intestine, 3H-labeled 2-monooleoyl glycerol)
Format: biochemical
Settings: microsomal fraction of human small intestine 5 μg/ml; 4 μM oleoyl-CoA, 1.25 μM 2-monooleoyl glycerol, 0.125 μM 3H-labeled 2-monooleoyl glycerol; room temperature 30 min; read-out: Activity Value [nM] (IC50, concentration at which 50% of the products 3H-labeled dioleoyl glycerol and trioleoyl glycerol was inhibited)
Reported IC50 by item:
Lab book: enter the figure in nM, no units written.

Example entries and their recorded answers appear below.
INSERT INTO assay_data (molecule, reported_metric, unit_of_measure, test_result) VALUES
  ('CC(c1ccnc(C(C)(C)C)c1)N1CCc2cc(S(=O)(=O)Nc3ccc(CCCC4CCCC4)cc3F)ccc2C1 (stereo not shown)', 'IC50', 'nM', 13),
  ('CC(c1cnc(C(C)(C)C)nc1)N1CCc2cc(S(=O)(=O)Nc3ccc(CCCC4CCCC4)cc3F)ccc2C1 (single isomer, unassigned) [24-8]', 'IC50', 'nM', 34),
  ('CC(C)(C)c1ccc(CCN2CCc3cc(S(=O)(=O)Nc4ccc(OCCOCC5CCCO5)cc4F)ccc3C2)cc1 (stereo not shown)', 'IC50', 'nM', 160);

# return recorded IC50 for input CC(C)(C)c1cc(CCN2CCc3cc(S(=O)(=O)Nc4ccc(CCCC5CCCC5)cc4F)ccc3C2)ccn1 164

# return recorded IC50 for input Cc1c(CN2CCc3cc(S(=O)(=O)Nc4ccc(CCCC5CCCC5)cc4F)ccc3C2)cnn1-c1ccccc1 81

# return recorded IC50 for input O=S(=O)(Nc1ccc(OCCC2CCOCC2)cc1F)c1ccc2c(c1)CCN(Cc1cnc(C(F)(F)F)nc1)C2 193

# return recorded IC50 for input Cc1ccc(-n2cc(CN3CCc4cc(S(=O)(=O)Nc5ccc(CCCC6CCCC6)cc5F)ccc4C3)cn2)cc1 16
